Examples of compounds with documented Average Response HSP27 follow.
study-target: MK2 (Rattus norvegicus, UniProt Q80ZF4)
Construct: endogenous in cells; host or cells: rat microvascular endothelial cells (RMVEC)
Sequence (Q80ZF4 1-386): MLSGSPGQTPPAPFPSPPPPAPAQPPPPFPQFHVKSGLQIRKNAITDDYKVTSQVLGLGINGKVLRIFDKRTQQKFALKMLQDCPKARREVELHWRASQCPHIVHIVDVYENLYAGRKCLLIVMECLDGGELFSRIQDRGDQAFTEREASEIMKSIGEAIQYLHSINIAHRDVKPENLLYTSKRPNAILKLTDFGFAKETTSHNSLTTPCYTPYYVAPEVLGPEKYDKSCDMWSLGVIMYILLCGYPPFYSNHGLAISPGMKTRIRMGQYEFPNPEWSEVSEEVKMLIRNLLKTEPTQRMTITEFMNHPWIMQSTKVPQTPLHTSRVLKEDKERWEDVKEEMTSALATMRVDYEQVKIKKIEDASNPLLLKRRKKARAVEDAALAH
measurement-notes: ELISA MK2 cell-based activity assay (phospho-HSP-27), RMVEC cells
conditions-used: compound 20 μM, 30 minutes, 37° C., phospho-HSP27 ELISA
Counter-ions that a name gives are not always drawn.
measurement-name: Average Response HSP27 (pg/mL)

> print(dat)
                                    compound   val
 1  Cc1nc2n(c(=O)c1CCN1CCC(c3noc4cc(F)ccc34)CC1)CCCC2O (stereo not drawn)   4.3
 2  Cc1cn(-c2cc(NC(=O)c3ccc(C)c(Nc4nccc(-c5cccnc5)n4)c3)cc(C(F)(F)F)c2)cn1  18.2
 3  CC(=O)Nc1nc2c(Oc3cc(-c4ccc(C(F)(F)F)cc4)ncn3)cccc2s1  33.7
 4  Cn1c(Nc2ccc(C(F)(F)F)cc2)nc2cc(Oc3ccnc(-c4ncc(C(F)(F)F)[nH]4)c3)ccc21   8.5
 5  COc1ccc(-c2cc(C(F)F)nn2-c2ccc(S(N)(=O)=O)cc2)cc1F  26.5
 6  COCCOc1ccc(N2CCN(CCn3ncc4c3nc(N)n3nc(-c5ccco5)nc43)CC2)cc1   4.2
 7  Cl.Cl.OCCN1CCN(CCC=C2c3ccccc3Sc3ccc(C(F)(F)F)cc32)CC1 (mixture of isomers) [Flupenthixol dihydrochloride]  10.4
 8  OCC(O)CN1CCN(c2ccccc2)CC1 (stereo not drawn)   1.2
 9  Cc1cc(C(=O)Nc2cc(Nc3ccc4c(/C=C/c5ccccn5)n[nH]c4c3)ccc2F)n(C)n1  20.4
10    O=C(O)c1ccc2nc(-c3cc(Cl)cc(Cl)c3)oc2c1  18.6
11  Cc1oncc1C(=O)Nc1ccc(C(F)(F)F)cc1 [Compound 72, Leflunomide]   5.2
12  CNCc1ccc(C)c(NC(=O)c2ccc(Nc3nc(-c4ccccc4)c4ccccc4n3)cc2)c1   8.8
13  Cc1ccccc1-c1cc(N2CCN(C)CC2)ncc1N(C)C(=O)C(C)(C)c1cc(C(F)(F)F)cc(C(F)(F)F)c1   2.7
14  CCS(=O)(=O)c1cccc(-c2cc(C(=O)NC3CCN(C)CC3)c(C)c3[nH]c4ncc(C)cc4c23)c1  -0.2
15  c1cc(OCCN2CCCCC2)cc(-c2n[nH]c3ccc(-c4nc[nH]n4)cc23)c1 [CC-401 Hydrochloride]   6.3
16  CC(=O)N1CCN(CCOc2ccc(C3CCN(C4=Nn5c(nnc5C(F)(F)F)CC4)CC3)cc2)CC1   5.9
17  Cc1csc(-c2nnc(Nc3ccc(Oc4ncccc4-c4ccnc(N)n4)cc3)c3ccccc23)c1  20.4
18  CC(C)c1cc(CNc2nc(Nc3cc(C4CC4)[nH]n3)cc(N3CCN(C)CC3)n2)on1   5.7
19  O=C1Cc2cc(CCN3CCN(c4nsc5ccccc45)CC3)c(Cl)cc2N1 [Ziprasidone HCl]  32.3
20  C=CCn1c(=O)c2cnc(Nc3ccc(N4CCN(C)CC4)cc3)nc2n1-c1cccc(C(C)(C)O)n1  21.4
21  COc1cc2ncnc(Oc3cccc(NC(=O)Nc4cc(C(C)(C)C(F)(F)F)on4)c3)c2cc1OC   6.2
